Below, each entry is listed with its recorded IC50.
# assay_target: unphosphorylated c-FMS kinase (uFMS, Seq. ID no. 1) (Homo sapiens, UniProt P07333)
# Sequence (P07333 538-972): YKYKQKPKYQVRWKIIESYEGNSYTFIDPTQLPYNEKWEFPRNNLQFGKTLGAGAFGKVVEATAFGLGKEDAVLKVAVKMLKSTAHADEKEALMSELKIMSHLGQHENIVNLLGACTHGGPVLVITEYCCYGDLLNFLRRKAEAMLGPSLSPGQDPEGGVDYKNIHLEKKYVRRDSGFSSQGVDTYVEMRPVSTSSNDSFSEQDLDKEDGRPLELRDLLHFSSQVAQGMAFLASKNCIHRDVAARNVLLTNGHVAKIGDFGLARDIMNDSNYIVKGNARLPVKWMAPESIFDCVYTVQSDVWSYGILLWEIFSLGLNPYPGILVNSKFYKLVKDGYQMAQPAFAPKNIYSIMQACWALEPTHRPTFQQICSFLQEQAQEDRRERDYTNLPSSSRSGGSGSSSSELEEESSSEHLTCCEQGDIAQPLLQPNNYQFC
# test_description: biochemical
# test_settings: uFMS, enzymatic assay, ATP 500 μM
readout_kind: IC50

molecule="Cc1ncc(-c2cc(Oc3ccc(NC(=O)NC(=O)C(C)(C)C)nc3C)ccn2)s1 [Example 86]" readout_kind=IC50 result="< 10 nM"
molecule="Cc1ncc(-c2cc(Oc3ccc(NC(=O)NC(=O)C4CCOC4)nc3)ccn2)s1 (stereo not shown) [Example 115]" readout_kind=IC50 result="10 to 100 nM"
molecule="Cc1nc(NC(=O)NC(=O)CN2CCN(C)CC2)ccc1Oc1ccnc(-c2cnn(C)c2)c1 [Example 50]" readout_kind=IC50 result="100 to 1000 nM"
molecule="COC(C)(C)C(=O)NC(=O)Nc1ccc(Oc2ccnc(-c3ccc(C4CCN(C)CC4)cc3)c2)c(C)n1 [Example 133]" readout_kind=IC50 result="< 10 nM"
molecule="Cc1nc(NC(=O)NC(=O)C23CC4CC(CC(C4)C2)C3)ccc1Oc1ccnc(-c2cnn(C)c2)c1 [Example 37]" readout_kind=IC50 result="< 10 nM"
molecule="COCCCC(=O)NC(=O)Nc1ccc(Oc2ccnc(-c3cnn(C)c3)c2)c(C)n1 [Example 25]" readout_kind=IC50 result="10 to 100 nM"
molecule="COC(C)(C)C(=O)NC(=O)Nc1ccc(Oc2ccnc(-c3ccc(C#N)nc3)c2)c(C)n1 [Example 110]" readout_kind=IC50 result="10 to 100 nM"
molecule="COC1(C(=O)NC(=O)Nc2ccc(Oc3ccnc(-c4cc(C)no4)c3)c(C)n2)CCCC1 [Example 166]" readout_kind=IC50 result="< 10 nM"
molecule="Cc1nc(NC(=O)NC(=O)C(C)(C)C)ccc1Oc1ccnc(-c2cncs2)c1 [Example 131]" readout_kind=IC50 result="< 10 nM"
molecule="CCC(=O)NC(=O)Nc1ccc(Oc2ccnc(-c3ccc(C)nc3)c2)cn1 [Example 108]" readout_kind=IC50 result="10 to 100 nM"
molecule="COC1(C(=O)NC(=O)Nc2ccc(Oc3ccnc(-n4cnc(C)c4)c3)cn2)CC1 [Example 143]" readout_kind=IC50 result="10 to 100 nM"
molecule="Cc1cc(NC(=O)NC(=O)C2(C)CCOCC2)nc(C)c1Oc1ccnc(-c2cnn(C)c2)c1 [Example 165]" readout_kind=IC50 result="< 10 nM"
molecule="CC(C)(C)C(=O)NC(=O)Nc1ccc(Oc2ccnc(-c3ccnc(C(F)(F)F)c3)c2)cn1 [Example 95]" readout_kind=IC50 result="10 to 100 nM"

Each recorded value in this set is attributed to patent US9382228B2.
